Recorded values, source paper PMC12543186.

assay: DPPH radical scavenging activity; conditions: 200 μM DPPH solution
Measured Attribute: IC50

Provide only the value of recorded IC50 for C=C1CCC2C(C)(COC(C)=O)C(OC(C)=O)CCC2(C)C1CC(SC(=S)N1CCN(c2ccc(O)cc2)CC1)C1=CCOC1=O (centres unmarked)
~25 µM

Below: the item to evaluate.
Provide only the value of recorded IC50 for `Cc1c(C)c2c(c(C)c1O)CC[C@@](C)(CCC[C@H](C)CCC[C@H](C)CCCC(C)C)O2`
~25 µM

---

biological target: α-glucosidase from Saccharomyces cerevisiae (Saccharomyces cerevisiae); assay: α-glucosidase inhibition activity (p-NPG substrate); format: biochemical; conditions: concentration range up to 2000 μM; read-out: IC50 (α-glucosidase inhibitory activity)
Sequence (P38158 whole entry): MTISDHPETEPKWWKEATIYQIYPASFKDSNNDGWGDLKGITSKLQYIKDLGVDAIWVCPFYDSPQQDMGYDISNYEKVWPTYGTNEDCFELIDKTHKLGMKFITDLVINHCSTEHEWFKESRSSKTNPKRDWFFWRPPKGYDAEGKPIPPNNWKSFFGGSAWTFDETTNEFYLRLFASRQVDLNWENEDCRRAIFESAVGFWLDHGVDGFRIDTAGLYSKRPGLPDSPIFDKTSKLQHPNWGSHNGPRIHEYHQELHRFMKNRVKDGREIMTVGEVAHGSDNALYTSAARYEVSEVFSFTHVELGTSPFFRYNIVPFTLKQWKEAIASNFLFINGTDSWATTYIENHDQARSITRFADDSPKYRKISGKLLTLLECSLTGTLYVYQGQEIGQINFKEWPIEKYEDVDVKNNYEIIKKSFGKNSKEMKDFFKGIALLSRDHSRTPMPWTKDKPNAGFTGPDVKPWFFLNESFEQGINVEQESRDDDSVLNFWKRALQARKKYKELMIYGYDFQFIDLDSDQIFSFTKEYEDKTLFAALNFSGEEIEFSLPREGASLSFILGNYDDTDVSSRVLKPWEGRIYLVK
pIC50: −log10 of the molar value.
Measured Attribute: pIC50

Provide only the value of recorded pIC50 for C=C1CC[C@@H]2[C@](C)(CO)[C@H](O)CC[C@@]2(C)[C@@H]1C/C=C1/C(=O)OC[C@H]1O [Andrographolide]
< 2.70
